Biological target: T1, human CD103 (integrin Alpha-E) / human integrin Beta-7 heterodimer on cells (human, UniProt P38570 19-1179; P26010 20-798)
T1 construct: the assay field tells which cells; also called hCD103/hBeta7; CHO.K1-hCD103/hBeta7
T1 sequence (P38570 19-1179 limits assumed, chain 1 of 2): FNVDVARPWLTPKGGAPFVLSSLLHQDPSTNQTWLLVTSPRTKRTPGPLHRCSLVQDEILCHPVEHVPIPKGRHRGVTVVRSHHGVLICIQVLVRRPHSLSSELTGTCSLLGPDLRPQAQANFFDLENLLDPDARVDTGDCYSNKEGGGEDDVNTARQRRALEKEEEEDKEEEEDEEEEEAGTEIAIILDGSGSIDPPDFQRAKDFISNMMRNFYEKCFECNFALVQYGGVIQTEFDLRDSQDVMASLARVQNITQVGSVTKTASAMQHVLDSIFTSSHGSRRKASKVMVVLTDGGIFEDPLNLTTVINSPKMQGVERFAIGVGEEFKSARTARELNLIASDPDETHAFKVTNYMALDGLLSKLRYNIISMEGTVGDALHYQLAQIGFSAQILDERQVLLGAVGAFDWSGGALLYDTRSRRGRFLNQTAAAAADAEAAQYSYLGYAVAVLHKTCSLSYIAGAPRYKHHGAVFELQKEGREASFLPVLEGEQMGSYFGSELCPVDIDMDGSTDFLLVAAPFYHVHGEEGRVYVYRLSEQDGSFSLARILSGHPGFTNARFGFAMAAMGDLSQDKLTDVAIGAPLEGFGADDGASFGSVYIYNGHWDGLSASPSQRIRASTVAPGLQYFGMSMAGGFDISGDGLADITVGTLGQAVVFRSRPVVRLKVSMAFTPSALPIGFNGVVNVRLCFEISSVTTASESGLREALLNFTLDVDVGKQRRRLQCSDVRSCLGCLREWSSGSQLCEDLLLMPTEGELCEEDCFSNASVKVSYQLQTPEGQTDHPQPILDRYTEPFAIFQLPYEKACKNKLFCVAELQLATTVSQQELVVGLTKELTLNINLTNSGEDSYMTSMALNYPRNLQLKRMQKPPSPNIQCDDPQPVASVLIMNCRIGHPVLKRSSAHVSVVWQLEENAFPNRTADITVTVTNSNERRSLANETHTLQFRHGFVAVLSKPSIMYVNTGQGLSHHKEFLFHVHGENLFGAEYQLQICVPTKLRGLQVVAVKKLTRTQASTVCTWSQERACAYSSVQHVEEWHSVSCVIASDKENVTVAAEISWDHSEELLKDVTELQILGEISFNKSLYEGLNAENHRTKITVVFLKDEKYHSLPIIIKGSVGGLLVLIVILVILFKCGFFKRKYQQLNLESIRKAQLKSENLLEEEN
T1 sequence (P26010 20-798 limits assumed, chain 2 of 2): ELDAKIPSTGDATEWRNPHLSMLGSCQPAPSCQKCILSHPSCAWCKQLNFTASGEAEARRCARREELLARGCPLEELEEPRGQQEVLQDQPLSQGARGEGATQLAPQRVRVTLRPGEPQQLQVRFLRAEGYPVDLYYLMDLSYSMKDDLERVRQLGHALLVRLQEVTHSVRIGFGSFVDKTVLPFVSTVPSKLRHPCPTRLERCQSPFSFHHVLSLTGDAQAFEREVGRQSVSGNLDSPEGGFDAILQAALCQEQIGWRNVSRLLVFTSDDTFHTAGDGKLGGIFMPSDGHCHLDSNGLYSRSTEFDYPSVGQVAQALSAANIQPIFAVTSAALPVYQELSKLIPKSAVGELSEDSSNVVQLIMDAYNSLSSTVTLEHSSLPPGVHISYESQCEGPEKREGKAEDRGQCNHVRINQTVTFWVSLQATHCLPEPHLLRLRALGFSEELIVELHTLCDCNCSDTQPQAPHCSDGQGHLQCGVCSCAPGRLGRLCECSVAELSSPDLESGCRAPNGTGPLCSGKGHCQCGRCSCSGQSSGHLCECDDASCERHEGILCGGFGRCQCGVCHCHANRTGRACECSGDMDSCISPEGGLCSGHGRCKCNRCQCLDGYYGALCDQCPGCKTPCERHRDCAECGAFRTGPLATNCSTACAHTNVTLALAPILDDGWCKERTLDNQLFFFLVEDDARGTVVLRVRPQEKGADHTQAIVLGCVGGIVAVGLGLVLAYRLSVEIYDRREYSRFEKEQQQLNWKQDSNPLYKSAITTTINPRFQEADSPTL
Assay: flow cytometry competition on CD103+CD8+ T cells; pre-incubation with unlabeled 06A; table n=1
Entries annotated with measured % binding of the fluorescently labeled mAb (IgG pre-incubation = 100)
Write the value in % as a bare number.

Solved cases below.
BINDER	ENDPOINT VALUE
hCD103.06A (antibody, mouse IgG1, V domains shown, also called clone 06A; hCD103.06 mAb) VH: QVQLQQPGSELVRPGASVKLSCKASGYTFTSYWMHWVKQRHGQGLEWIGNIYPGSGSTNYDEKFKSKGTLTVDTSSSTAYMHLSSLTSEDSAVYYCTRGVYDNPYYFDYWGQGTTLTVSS VL: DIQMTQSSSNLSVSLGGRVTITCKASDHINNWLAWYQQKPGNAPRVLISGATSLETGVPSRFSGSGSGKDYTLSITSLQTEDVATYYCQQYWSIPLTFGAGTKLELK	18.7
hCD103.01A (antibody, V domains shown, Also tested labelled with AF647, conjugated with Df and labelled with 89Zr; these are written under this molecule; also called clone 01A; hCD103.01 mAb) VH: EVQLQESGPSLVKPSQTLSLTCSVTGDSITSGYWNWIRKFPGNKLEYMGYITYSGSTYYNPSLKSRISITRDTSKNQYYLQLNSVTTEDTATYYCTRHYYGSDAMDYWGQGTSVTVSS VL: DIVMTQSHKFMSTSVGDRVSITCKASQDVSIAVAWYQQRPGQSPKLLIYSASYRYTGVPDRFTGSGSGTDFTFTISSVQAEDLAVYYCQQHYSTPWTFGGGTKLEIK	81.8

hCD103.07A (antibody, mouse IgG1, V domains shown, also called clone 07A) VH: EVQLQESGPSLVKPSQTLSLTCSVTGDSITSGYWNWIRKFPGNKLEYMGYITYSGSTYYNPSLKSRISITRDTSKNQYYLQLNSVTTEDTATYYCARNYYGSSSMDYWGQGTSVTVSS VL: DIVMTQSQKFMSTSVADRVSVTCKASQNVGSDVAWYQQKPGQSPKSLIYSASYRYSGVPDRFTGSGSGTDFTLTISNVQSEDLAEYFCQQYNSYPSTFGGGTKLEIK yielded % binding of the fluorescently labeled mAb (IgG pre-incubation = 100) of 73.2

Noted for hCD103.05A (antibody, mouse IgG1, V domains shown, Also tested labelled with AF647, conjugated with Df and labelled with 89Zr; these are written under this molecule; also called clone 05A; hCD103.05 mAb) VH: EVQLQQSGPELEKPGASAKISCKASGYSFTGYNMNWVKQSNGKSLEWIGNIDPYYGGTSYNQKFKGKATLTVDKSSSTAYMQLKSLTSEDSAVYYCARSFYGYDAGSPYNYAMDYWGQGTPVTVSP VL: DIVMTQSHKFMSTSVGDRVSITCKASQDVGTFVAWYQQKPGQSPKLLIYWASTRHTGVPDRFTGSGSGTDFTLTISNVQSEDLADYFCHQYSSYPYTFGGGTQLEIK : its % binding of the fluorescently labeled mAb (IgG pre-incubation = 100) reads 101
